- system under test: SMYD3 in complex with active site-specific tight-binding inhibitor EPZ031686 (Homo sapiens, UniProt Q9H7B4)
- Construct: Full length recombinant SMYD3 was produced as previously reported
- Sequence (Q9H7B4 1-428): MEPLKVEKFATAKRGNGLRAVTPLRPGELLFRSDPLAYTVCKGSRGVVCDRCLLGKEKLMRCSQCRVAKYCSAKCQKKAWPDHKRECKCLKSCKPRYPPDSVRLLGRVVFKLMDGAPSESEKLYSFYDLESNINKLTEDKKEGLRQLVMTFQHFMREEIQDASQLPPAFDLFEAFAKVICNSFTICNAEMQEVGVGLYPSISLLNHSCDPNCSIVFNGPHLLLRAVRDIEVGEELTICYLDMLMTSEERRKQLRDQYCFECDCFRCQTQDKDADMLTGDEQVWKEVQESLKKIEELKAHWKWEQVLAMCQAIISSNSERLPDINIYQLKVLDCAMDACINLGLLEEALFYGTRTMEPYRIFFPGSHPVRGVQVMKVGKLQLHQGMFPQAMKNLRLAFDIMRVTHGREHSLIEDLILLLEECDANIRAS
- measurement notes: GCI biosensor kinetic screening, active site blocked SMYD3 surface
- condition: initial kinetic screening, fragment 250 μM, 15 °C, SMYD3 blocked by EPZ031686
assay metric: Kd (µM)

Look over these answered cases.
• Cn1cnc(S(N)(=O)=O)c1 = 24
• Oc1ccc2ccncc2c1 = 56
• CC(C)c1nsc(N)n1 = 37
• O=C(O)C(=O)c1ccccc1 = 38
• COc1ccc(-n2ncc(C(=O)O)c2C)cc1 = 149

1. Nc1ccnc(-c2cccnc2)n1
2. COc1ccc(Br)cc1N
Task: // returns 1 or 2 , whichever has the lower Kd Give the label under which the chosen entry appears.
Result: 1
(1: 25 µM, 2: 124 µM)

P. CC(C)(C)OC(=O)NC1CCC(CC(=O)O)CC1 (stereo not shown)
Q. O=S(=O)(c1ccccc1)C1CCNC1 (stereo not shown)
Task: Among P and Q , which shows a numerically higher Kd result? Identify your pick by its label.
Result: P

----------
- system under test: SMYD3 (apo, native) (Homo sapiens)
- Construct: Full length recombinant SMYD3 was produced as previously reported; made in house; host or cells: E. coli BL21(DE3), in some cases Rosetta 2
- measurement notes: GCI biosensor kinetic screening, apo SMYD3 surface
- Assay type: binding
- condition: initial kinetic screening, fragment 250 μM, 15 °C, 1:1 model, read-out: ka
assay metric: kon at 250 µM (M⁻¹ s⁻¹)

Below: 3 compounds and their reported kon at 250 µM.
- Cn1cnc(S(N)(=O)=O)c1 [FL06268]: 21400
- O=C(O)c1ccnc2ccccc12 [FL02261]: 62700
- N#Cc1cc(Br)ccc1O [FL01750]: 29500

a. O=c1cc(C(F)(F)F)c2cc(Cl)c(O)cc2o1 [FL01677]
b. N#Cc1cccc(O)c1 [FL01507]
c. NC(=O)c1cccc(O)c1 [FL08580]
Task: Rank ascending by kon at 250 µM. The reply should contain the labels ordered as requested.
Result: a, b, c
